B1: CAMK2D (parent)
chain: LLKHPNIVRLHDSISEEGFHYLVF

variants of: B1; assay: protein stability index of a GFP-peptide fusion (GPS, HEK-293T) (PSI 1-6); higher = more stable; conditions: c terminus: a fixed tail appended;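 further: lentivirally expressed fusions sorted by FACS into six bins by GFP to DsRed ratio, PSI derived from sequencing read proportions per bin multiplied by bin number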
Param threshold (2) applies to protein stability index; output rule met when value >= threshold, rule not met when value < threshold.

1. L2K: rule met
2. K3T: rule not met
3. E16T: rule not met
4. G18W: rule not met
5. V8R: rule not met
6. K3W: rule met
7. H4R: rule met
8. L2D: rule met
